Hello, the source for this data is ChEMBL document CHEMBL5665443, in case you need it.

Target: Single-strand selective monofunctional uracil DNA glycosylase (Homo sapiens);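 note: enzymatic SMUG1 assay coupled with APE1, reading fluorescence at 594 nm released when a quenched double-stranded DNA oligonucleotide substrate is cleaved and separated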
Sequence (whole entry): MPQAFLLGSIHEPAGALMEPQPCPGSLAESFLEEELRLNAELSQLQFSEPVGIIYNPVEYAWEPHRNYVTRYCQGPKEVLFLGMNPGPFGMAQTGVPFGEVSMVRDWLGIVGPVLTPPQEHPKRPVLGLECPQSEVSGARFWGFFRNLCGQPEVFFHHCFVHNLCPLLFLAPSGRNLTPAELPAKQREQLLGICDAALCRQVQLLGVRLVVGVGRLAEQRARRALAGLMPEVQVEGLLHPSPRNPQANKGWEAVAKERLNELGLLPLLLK
Details: Compound Concentration 10.0 uM, Hit No
Description: Inhibition of SMUG1 by quantifying inhibition of SMUG1-mediated cleavage and dissociation of quenched duplex DNA oligonucleotides, measured as fluorescence at 594 nm. To generate a functional strand incision and increase turn-over this assay is coupled to APE1.
Please mark rule met if the recorded inhibition is equal to or greater than 20%, and rule not met if it falls below.

Here's what some known entries look like.
[[record]]
sample_smiles = "COc1cc(-c2cn([C@H]3CCc4ccccc4N(CC(F)(F)F)C3=O)nn2)ccc1-n1ccc(C)n1"
assigned_category = "rule not met"

[[record]]
sample_smiles = "CC1(C)CCC(C)(C)c2cc(C(=O)Nc3ccc(C(=O)O)cc3)ccc21"
assigned_category = "rule not met"

[[record]]
sample_smiles = "CN(C)c1ncc2cc(-c3ccc(-c4ncccc4F)cc3Cl)c(=O)n(C[C@H]3OC[C@H](N)CO3)c2n1"
assigned_category = "rule met"

[[record]]
sample_smiles = "O=C(Nc1ccc(C(O)(C(F)(F)F)C(F)(F)F)cc1)c1ccc(C(F)(F)F)cc1"
assigned_category = "rule met"

[[record]]
sample_smiles = "O=C(Nc1cc(C(F)(F)F)cc(C(F)(F)F)c1)c1cc(Cl)ccc1O"
assigned_category = "rule not met"


Request: Check the entry Cc1c(F)cccc1NC(=O)Nc1ccc(Cl)c(S(=O)(=O)[C@H]2CCCNC2)c1O : does inhibition equal or exceed 20%?
Response: rule not met

Request: Check the entry CO[C@H]1/C=C/O[C@@]2(C)Oc3c(C)c(O)c4c(O)c(c(/C=N/N5CCN(C)CC5)c(O)c4c3C2=O)NC(=O)/C(C)=C\C=C\[C@H](C)[C@H](O)[C@@H](C)[C@@H](O)[C@@H](C)[C@H](OC(C)=O)[C@@H]1C : does inhibition equal or exceed 20%?
Response: rule met

Request: Check the entry CN(c1ncccc1CNc1ccnc(-c2nc3c(F)c(Cl)ccc3[nH]2)n1)S(C)(=O)=O : does inhibition equal or exceed 20%?
Response: rule not met
